- Assay method text: AUC (0 to last) in C57BL/6J mouse at 10 mg/kg, po measured upto 24 hrs by LC-MS/MS analysis
- Assay type: ADME, organism-based
- Design: dose 10 mg/kg, route oral, time 0 - last
- Protocol conditions: in vivo
Parameter measured: AUC(0-t) at 24 h (µM·h)
Give just the number in µM·h; leave the unit off.

Lookup: Give the measured AUC(0-t) at 24 h for Cc1cc(Cc2cc(-c3ccc(Br)cc3)on2)cc(C)c1OC(C)(C)C(=O)O
Found: 63.2

---

- Assay method text: Protein binding in human plasma at 2 uM incubated for 4 hrs by LC-MS/MS analysis
- Format: ADME, cell-free
Parameter measured: fraction unbound at 4 h, 2 µM

Lookup: Give the measured fraction unbound at 4 h, 2 µM for Cc1cc(Cc2cc(-c3ccc(Br)cc3)on2)cc(C)c1OC(C)(C)C(=O)O
Found: < 0.001

---

- Assay method text: Clearance in C57BL/6J mouse at 1 mg/kg, iv measured upto 24 hrs by LC-MS/MS analysis
- Type: ADME, organism-based
- Protocol conditions: in vivo
Parameter measured: clearance (mL/min/kg)
Give just the number in mL/min/kg; leave the unit off.

Lookup: Give the measured clearance for Cc1cc(Cc2cc(-c3ccc(Br)cc3)on2)cc(C)c1OC(C)(C)C(=O)O
Found: 3.53

---

- Assay method text: Cmax in C57BL/6J mouse at 10 mg/kg, po measured upto 24 hrs by LC-MS/MS analysis
- Format: ADME, organism-based
- Set-up: dose 10 mg/kg, route oral
- Protocol conditions: in vivo
Parameter measured: Cmax (µM)
Give just the number in µM; leave the unit off.

Lookup: Give the measured Cmax for Cc1cc(Cc2cc(-c3ccc(Br)cc3)on2)cc(C)c1OC(C)(C)C(=O)O
Found: 52

---

- Assay method text: Cmax in Sprague-Dawley rat at 10 mg/kg, po measured upto 24 hrs by LC-MS/MS analysis
- Format: ADME, organism-based
- Design: dose 10 mg/kg, route oral
- Protocol conditions: in vivo
Parameter measured: Cmax (µM)
Give just the number in µM; leave the unit off.

Lookup: Give the measured Cmax for Cc1cc(Cc2cc(-c3ccc(Br)cc3)on2)cc(C)c1OC(C)(C)C(=O)O
Found: 65.3

---

- Assay method text: AUC (0 to last) in Sprague-Dawley rat at 1 mg/kg, iv measured upto 24 hrs by LC-MS/MS analysis
- Assay type: ADME, organism-based
- Set-up: dose 1 mg/kg, route intravenous, time 0 - last
- Protocol conditions: in vivo
Parameter measured: AUC(0-t) at 24 h (µM·h)
Give just the number in µM·h; leave the unit off.

Lookup: Give the measured AUC(0-t) at 24 h for Cc1cc(Cc2cc(-c3ccc(Br)cc3)on2)cc(C)c1OC(C)(C)C(=O)O
Found: 105

---

- Assay method text: Tmax in Sprague-Dawley rat at 10 mg/kg, po measured upto 24 hrs by LC-MS/MS analysis
- Assay type: ADME, organism-based
- Protocol conditions: in vivo
Parameter measured: Tmax (h)
Give just the number in h; leave the unit off.

Lookup: Give the measured Tmax for Cc1cc(Cc2cc(-c3ccc(Br)cc3)on2)cc(C)c1OC(C)(C)C(=O)O
Found: 1.33

---

- Target or system: Peroxisome proliferator-activated receptor alpha (Homo sapiens, UniProt Q07869)
- Sequence (Q07869 whole entry): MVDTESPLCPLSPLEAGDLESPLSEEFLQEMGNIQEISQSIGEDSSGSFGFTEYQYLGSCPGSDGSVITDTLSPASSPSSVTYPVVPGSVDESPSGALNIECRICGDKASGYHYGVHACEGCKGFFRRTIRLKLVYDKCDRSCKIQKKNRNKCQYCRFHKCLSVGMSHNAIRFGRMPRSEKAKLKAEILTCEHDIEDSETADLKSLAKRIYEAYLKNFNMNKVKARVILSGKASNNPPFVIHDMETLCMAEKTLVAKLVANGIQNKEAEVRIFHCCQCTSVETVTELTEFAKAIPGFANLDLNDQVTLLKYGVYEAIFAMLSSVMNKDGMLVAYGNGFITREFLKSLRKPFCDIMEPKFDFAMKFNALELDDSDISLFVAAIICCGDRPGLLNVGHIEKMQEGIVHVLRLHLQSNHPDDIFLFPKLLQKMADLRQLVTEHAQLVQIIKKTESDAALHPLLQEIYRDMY
- Assay method text: Agonist activity at PPARalpha (unknown origin) incubated for 3 to 16 hrs by pathhunter nuclear hormone receptor assay
I'd appreciate it if you could supply EC50 values for the items below.
Give just the number in nM; leave the unit off.

Lookup: Give the measured EC50 for Cc1cc(Cc2noc3c2CCOc2cc(Br)ccc2-3)cc(C)c1OC(C)(C)C(=O)O
Found: 8970

Lookup: Give the measured EC50 for Cc1cc(Cc2cnoc2-c2ccc(Br)cc2)cc(C)c1OC(C)(C)C(=O)O
Found: 2820

Lookup: Give the measured EC50 for Cc1cc(CCc2cc(-c3ccc(Br)cc3)on2)cc(C)c1OC(C)(C)C(=O)O
Found: 27

Lookup: Give the measured EC50 for Cc1cc(Cc2cc(-c3ccc(Br)cc3)on2)cc(C)c1OC(C)(C)C(=O)O
Found: 8

Lookup: Give the measured EC50 for Cc1cc(Cc2onc3c2CCOc2cc(Br)ccc2-3)cc(C)c1OC(C)(C)C(=O)O
Found: 3420

---

- Assay method text: AUC (0 to last) in Sprague-Dawley rat at 10 mg/kg, po measured upto 24 hrs by LC-MS/MS analysis
- Assay type: ADME, organism-based
- Parameters: dose 10 mg/kg, route oral, time 0 - last
- Protocol conditions: in vivo
Parameter measured: AUC(0-t) at 24 h
# include the unit after the value

Lookup: Give the measured AUC(0-t) at 24 h for Cc1cc(Cc2cc(-c3ccc(Br)cc3)on2)cc(C)c1OC(C)(C)C(=O)O
Found: 561 µM·h

---

- Target or system: Peroxisome proliferator-activated receptor delta (Homo sapiens, UniProt Q03181)
- Sequence (Q03181 whole entry): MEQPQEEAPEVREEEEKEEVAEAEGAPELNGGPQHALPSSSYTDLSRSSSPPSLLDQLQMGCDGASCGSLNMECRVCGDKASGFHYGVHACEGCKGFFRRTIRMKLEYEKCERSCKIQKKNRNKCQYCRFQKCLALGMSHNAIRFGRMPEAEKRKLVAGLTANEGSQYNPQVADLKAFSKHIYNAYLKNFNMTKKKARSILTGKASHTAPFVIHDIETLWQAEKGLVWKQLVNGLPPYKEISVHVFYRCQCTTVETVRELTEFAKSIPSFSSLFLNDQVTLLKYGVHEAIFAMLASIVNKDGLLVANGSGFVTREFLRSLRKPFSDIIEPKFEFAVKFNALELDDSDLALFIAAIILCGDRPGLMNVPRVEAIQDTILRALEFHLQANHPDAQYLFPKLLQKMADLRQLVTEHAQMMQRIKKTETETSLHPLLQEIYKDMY
- Assay method text: Agonist activity at PPARbeta (unknown origin) incubated for 3 to 16 hrs by pathhunter nuclear hormone receptor assay
Parameter measured: pEC50
Would you please state pEC50, meaning minus log10 of the concentration in mol/L, as a bare number?

Lookup: Give the measured pEC50 for Cc1cc(CCc2cc(-c3ccc(Br)cc3)on2)cc(C)c1OC(C)(C)C(=O)O
Found: 8.30

Lookup: Give the measured pEC50 for CCCc1c(OCCCOc2ccc(OCC(=O)O)cc2)ccc(C(C)=O)c1O
Found: 7.21

Lookup: Give the measured pEC50 for Cc1cc(Cc2cc(-c3ccc(Br)cc3)on2)cc(C)c1OC(C)(C)C(=O)O
Found: 8.30

---

- Assay method text: Protein binding in rat plasma at 2 uM incubated for 4 hrs by LC-MS/MS analysis
- Format: ADME, cell-free
Parameter measured: fraction unbound at 4 h, 2 µM

Lookup: Give the measured fraction unbound at 4 h, 2 µM for Cc1cc(Cc2cc(-c3ccc(Br)cc3)on2)cc(C)c1OC(C)(C)C(=O)O
Found: < 0.001

---

Target protein (sequence): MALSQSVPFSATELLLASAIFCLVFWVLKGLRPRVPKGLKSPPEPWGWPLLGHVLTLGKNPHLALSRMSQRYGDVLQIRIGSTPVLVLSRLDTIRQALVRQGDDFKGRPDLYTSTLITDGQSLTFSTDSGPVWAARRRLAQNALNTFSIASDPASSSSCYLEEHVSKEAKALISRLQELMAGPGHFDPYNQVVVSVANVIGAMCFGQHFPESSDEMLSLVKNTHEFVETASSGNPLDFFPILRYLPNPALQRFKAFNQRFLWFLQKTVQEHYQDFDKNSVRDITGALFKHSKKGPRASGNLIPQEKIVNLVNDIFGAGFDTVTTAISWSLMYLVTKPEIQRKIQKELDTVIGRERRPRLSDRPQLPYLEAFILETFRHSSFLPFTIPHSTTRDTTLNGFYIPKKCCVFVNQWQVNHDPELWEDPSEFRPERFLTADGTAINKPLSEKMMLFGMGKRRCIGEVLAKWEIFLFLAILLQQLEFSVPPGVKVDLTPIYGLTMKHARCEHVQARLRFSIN
Parameter measured: pIC50
Would you please state pIC50, meaning minus log10 of the concentration in mol/L, as a bare number?

Lookup: Give the measured pIC50 for Cc1cc(Cc2cc(-c3ccc(Br)cc3)on2)cc(C)c1OC(C)(C)C(=O)O
Found: 5.00

---

- Target or system: UniProt Q12809
- Sequence (Q12809 whole entry): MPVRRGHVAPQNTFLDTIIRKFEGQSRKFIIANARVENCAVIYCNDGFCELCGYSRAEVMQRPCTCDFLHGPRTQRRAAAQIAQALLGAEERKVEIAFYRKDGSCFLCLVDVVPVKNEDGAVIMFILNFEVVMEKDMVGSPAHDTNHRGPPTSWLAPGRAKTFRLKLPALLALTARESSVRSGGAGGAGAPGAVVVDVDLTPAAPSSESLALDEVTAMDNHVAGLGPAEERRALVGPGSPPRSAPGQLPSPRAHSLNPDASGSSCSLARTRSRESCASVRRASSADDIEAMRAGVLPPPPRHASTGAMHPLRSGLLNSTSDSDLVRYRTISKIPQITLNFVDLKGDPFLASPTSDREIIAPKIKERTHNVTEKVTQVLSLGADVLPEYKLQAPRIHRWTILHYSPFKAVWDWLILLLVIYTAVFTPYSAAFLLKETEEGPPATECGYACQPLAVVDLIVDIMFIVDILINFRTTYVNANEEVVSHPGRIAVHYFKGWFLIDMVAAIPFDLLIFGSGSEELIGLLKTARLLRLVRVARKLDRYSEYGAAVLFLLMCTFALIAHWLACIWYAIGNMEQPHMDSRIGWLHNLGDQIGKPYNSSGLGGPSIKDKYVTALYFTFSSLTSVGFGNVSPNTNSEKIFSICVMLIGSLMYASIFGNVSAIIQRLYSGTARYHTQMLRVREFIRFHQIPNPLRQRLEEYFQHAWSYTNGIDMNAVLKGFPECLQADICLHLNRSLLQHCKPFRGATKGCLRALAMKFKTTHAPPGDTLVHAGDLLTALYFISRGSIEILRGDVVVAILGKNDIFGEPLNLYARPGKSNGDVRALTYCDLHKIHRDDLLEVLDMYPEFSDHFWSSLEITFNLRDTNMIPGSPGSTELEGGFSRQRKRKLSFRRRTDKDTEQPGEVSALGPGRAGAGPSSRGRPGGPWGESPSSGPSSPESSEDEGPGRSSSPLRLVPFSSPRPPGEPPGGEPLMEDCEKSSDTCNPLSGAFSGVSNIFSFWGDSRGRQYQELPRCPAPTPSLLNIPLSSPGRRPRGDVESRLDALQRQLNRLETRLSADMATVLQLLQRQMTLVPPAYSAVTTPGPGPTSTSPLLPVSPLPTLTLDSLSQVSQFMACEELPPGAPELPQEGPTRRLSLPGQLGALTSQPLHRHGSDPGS
- Assay method text: Inhibition of human ERG expressed in CHO-K1 cells by whole-cell patch clamp assay
pIC50: −log10 of the molar value.
Parameter measured: pIC50

Lookup: Give the measured pIC50 for Cc1cc(Cc2cc(-c3ccc(Br)cc3)on2)cc(C)c1OC(C)(C)C(=O)O
Found: < 4.52

---

- Assay method text: Clearance in Sprague-Dawley rat at 1 mg/kg, iv measured upto 24 hrs by LC-MS/MS analysis
- Format: ADME, organism-based
- Protocol conditions: in vivo
Parameter measured: clearance (mL/min/kg)
Give just the number in mL/min/kg; leave the unit off.

Lookup: Give the measured clearance for Cc1cc(Cc2cc(-c3ccc(Br)cc3)on2)cc(C)c1OC(C)(C)C(=O)O
Found: 0.35
